Target: BRM (Homo sapiens, UniProt P51531)
Sequence (P51531 whole entry): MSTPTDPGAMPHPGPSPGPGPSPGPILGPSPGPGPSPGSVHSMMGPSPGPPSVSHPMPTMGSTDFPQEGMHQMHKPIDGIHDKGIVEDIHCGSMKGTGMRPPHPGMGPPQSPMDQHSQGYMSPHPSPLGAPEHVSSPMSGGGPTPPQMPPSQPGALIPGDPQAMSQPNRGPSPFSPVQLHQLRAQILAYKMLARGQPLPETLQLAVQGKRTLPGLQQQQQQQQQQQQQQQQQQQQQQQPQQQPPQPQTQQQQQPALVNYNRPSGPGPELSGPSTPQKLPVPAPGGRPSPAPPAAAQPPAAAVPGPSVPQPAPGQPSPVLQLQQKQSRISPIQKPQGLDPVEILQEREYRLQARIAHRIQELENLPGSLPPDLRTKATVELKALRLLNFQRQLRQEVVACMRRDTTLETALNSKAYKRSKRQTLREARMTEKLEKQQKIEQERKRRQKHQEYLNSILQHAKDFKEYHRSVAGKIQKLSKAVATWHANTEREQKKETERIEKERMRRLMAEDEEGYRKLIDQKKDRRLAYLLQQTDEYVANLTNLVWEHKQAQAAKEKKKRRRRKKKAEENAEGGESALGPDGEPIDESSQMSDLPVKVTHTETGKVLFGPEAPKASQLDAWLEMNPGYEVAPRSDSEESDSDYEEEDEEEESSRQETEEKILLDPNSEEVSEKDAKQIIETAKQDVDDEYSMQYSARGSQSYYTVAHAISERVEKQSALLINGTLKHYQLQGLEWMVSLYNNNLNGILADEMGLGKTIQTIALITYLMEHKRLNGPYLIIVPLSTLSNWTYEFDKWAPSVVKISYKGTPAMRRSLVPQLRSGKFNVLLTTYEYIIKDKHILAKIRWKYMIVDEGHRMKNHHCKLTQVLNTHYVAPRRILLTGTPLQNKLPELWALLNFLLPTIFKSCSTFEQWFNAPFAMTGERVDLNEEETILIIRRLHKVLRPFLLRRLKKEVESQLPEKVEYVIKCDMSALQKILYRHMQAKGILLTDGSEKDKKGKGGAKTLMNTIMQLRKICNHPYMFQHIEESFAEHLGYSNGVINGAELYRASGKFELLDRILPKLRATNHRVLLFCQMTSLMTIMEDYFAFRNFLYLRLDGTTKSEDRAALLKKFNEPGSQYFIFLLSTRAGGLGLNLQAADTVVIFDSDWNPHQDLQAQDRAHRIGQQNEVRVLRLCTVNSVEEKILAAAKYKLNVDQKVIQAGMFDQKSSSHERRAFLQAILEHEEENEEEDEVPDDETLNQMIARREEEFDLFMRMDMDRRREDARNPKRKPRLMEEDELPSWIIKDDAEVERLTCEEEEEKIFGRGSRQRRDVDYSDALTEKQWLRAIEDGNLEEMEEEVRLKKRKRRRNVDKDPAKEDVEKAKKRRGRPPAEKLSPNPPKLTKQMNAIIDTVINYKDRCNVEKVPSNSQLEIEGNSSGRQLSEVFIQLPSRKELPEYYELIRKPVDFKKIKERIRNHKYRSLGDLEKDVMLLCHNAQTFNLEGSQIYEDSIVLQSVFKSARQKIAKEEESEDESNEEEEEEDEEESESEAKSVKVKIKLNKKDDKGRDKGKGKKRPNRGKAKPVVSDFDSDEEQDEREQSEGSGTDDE
Experiment: ATPase catalytic activity assay of BRM (ADP-Glo)
Format: biochemical
Conditions: read-out: BRM IC50 (μM)*
measurementName: IC50

>>> readoutvalue("O=C(CNC(=O)c1cccc(C2(C(F)F)COC2)c1)Nc1nc(-c2cccc(C(F)F)c2)cs1 [Compound 344]")
"0.1 to 1 µM"
>>> readoutvalue("CC1(C#N)CCc2ccc(C(=O)NCC(=O)Nc3nc(-c4cccc(-c5ccncc5)c4)cs3)cc21 (single isomer, unassigned) [Compound 103]")
"< 0.1 µM"
>>> readoutvalue("C[C@@]1(C#N)COCc2ccc(C(=O)NCC(=O)Nc3nc(-c4cc(F)c5c(c4)OCO5)cs3)cc21 [Compound 339]")
"< 0.1 µM"
>>> readoutvalue("CC(=O)N1CC(c2cccc(-c3csc(NC(=O)CNC(=O)c4ccc5c(c4)[C@](C)(C#N)COC5)n3)c2)C1 [Compound 379]")
"< 0.1 µM"

---

Target: BRM (Homo sapiens, UniProt P51531)
Test: ATPase catalytic activity assay of BRM (ADP-Glo)
Type: biochemical
Conditions: read-out: BRM IC50 (μM)*
Each entry below carries its reported IC50.
measurementName: IC50

>>> readoutvalue("C[C@@H]1CN(c2cccc(-c3csc(NC(=O)CNC(=O)c4ccc5c(c4)[C@](C)(C#N)CC5)n3)n2)C[C@H](C)O1")
"< 0.1 µM"
>>> readoutvalue("C[C@@H]1CN(c2cccc(-c3csc(NC(=O)CNC(=O)c4ccc5c(c4)[C@@H]([C@@H](C)O)CC5)n3)n2)C[C@H](C)O1")
"< 0.1 µM"
>>> readoutvalue("Cc1cc(-c2cccc(-c3csc(NC(=O)CNC(=O)c4ccc(C)c(S(=O)(=O)C(C)C)c4)n3)n2)ncn1")
"< 0.1 µM"

---

# Emax per entry
Biological target: BRG-1 (Homo sapiens)
Sequence (P51532 whole entry): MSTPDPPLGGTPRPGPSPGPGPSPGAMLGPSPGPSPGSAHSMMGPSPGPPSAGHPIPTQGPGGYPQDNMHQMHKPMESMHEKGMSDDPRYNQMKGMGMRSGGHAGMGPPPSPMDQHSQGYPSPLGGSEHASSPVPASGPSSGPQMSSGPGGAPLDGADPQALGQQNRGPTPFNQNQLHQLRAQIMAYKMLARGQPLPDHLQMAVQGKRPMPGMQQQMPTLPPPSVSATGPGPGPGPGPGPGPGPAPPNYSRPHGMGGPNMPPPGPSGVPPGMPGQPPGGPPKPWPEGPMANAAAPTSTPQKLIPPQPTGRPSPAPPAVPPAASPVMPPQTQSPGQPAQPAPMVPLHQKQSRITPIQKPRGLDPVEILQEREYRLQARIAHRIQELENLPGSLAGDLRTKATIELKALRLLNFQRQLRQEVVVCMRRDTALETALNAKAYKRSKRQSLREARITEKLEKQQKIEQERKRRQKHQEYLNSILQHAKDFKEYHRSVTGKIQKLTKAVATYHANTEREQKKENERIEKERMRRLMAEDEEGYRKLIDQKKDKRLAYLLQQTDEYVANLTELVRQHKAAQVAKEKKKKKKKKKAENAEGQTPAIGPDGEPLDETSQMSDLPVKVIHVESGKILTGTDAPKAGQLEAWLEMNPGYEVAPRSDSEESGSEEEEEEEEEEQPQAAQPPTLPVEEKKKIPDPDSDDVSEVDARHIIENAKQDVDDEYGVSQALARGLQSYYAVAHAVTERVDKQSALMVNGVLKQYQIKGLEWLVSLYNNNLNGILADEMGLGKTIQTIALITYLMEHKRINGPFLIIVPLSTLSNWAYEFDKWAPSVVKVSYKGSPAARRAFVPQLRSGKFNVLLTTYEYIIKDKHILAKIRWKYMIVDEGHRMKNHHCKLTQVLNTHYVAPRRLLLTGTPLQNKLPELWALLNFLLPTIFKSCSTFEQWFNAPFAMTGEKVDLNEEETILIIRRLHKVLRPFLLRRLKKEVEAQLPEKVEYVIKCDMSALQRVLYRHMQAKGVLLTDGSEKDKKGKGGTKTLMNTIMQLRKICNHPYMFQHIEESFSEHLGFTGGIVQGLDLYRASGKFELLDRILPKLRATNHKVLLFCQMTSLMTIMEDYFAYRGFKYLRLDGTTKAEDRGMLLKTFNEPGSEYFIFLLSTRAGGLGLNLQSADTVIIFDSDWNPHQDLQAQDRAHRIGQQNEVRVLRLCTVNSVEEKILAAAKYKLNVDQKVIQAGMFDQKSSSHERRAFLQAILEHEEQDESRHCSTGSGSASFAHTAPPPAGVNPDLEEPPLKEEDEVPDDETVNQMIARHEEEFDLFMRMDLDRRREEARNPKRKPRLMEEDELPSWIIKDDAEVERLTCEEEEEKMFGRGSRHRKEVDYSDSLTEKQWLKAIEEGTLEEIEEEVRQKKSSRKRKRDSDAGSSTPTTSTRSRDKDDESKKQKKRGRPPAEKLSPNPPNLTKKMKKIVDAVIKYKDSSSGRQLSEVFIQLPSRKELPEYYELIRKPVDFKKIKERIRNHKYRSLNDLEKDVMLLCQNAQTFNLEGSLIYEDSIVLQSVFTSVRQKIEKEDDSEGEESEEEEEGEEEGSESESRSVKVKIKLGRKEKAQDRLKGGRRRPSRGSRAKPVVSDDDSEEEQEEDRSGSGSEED
Assay: ATPase catalytic activity assay of BRG-1 (ADP-Glo)
Format: biochemical
Conditions: ATPase catalytic activity, ADP-Glo; read-out: BRG1 Max % Inhibition
measurementName: Emax

>>> readoutvalue("CC(C)(C(N)=O)c1cccc(C(=O)NCC(=O)Nc2nc(-c3cccc(-c4ccncc4)c3)cs2)c1")
"> 90%"
>>> readoutvalue("C[C@@H]1CN(c2cccc(-c3csc(NC(=O)CNC(=O)c4cccc([C@]5(C(F)F)CCCO5)c4)n3)c2)C[C@H](C)O1")
"> 90%"
>>> readoutvalue("CC1CC(c2cccc(-c3csc(NC(=O)CNC(=O)c4ccc5c(c4)[C@](C)(C#N)COC5)n3)c2)O1 (some centres unmarked)")
"> 95%"
>>> readoutvalue("Cc1cc(-c2cccc(-c3csc(NC(=O)CNC(=O)c4cccc(S(=O)(=O)C(C)C)c4)n3)n2)ncn1")
"> 80%"
>>> readoutvalue("C[C@@H]1CN(c2cccc(-c3csc(NC(=O)CNC(=O)c4ccc5c(c4)[C@](C)(CO)CC5)n3)c2)C[C@H](C)O1")
"> 80%"

---

Molecular target: BRM (Homo sapiens, UniProt P51531)
Experiment: ATPase catalytic activity assay of BRM (ADP-Glo)
Format: biochemical
# BRM Max % Inhibition values compiled below
measurementName: BRM Max % Inhibition

>>> readoutvalue("Cn1ncc2ccc(-c3csc(NC(=O)CNC(=O)c4ccc5c(c4)[C@@](C)(CO)CC5)n3)cc21")
">60%"
>>> readoutvalue("CN1C(=O)CCc2ccc(-c3csc(NC(=O)CNC(=O)c4ccc5c(c4)[C@](C)(CO)CC5)n3)cc21")
">90%"
>>> readoutvalue("Cc1ccc(C(=O)NCC(=O)Nc2nc(-c3cccc(N4C[C@@H](C)O[C@@H](C)C4)n3)cs2)cc1C(C)(C)CO")
">95%"
>>> readoutvalue("CC(NC(=O)c1ccc2c(c1)[C@](C)(F)COC2)C(=O)Nc1nc(-c2cccc(N3CCC3)c2)cs1 (stereo in doubt)")
">95%"
>>> readoutvalue("Cc1cc(-c2cccc(-c3csc(NC(=O)CNC(=O)c4ccc5c(c4)[C@@](C)(CO)CC5)n3)n2)ncn1")
">95%"

---

Molecular target: BRM (Homo sapiens, UniProt P51531)
Test: ATPase catalytic activity assay of BRM (ADP-Glo)
Format: biochemical
Conditions: read-out: BRM IC50 (μM)*
measurementName: IC50

>>> readoutvalue("Cc1ccc(C(=O)NCC(=O)Nc2nc(-c3cccc(N4C[C@@H](C)O[C@@H](C)C4)n3)cs2)cc1C(C)(C)CO")
"< 0.1 µM"
>>> readoutvalue("C[C@@H]1CN(c2cccc(-c3csc(NC(=O)CNC(=O)c4cccc(C(C)(C)CN)c4)n3)c2)C[C@H](C)O1")
"< 0.1 µM"
>>> readoutvalue("CC(NC(=O)c1ccc2c(c1)[C@](C)(F)COC2)C(=O)Nc1nc(-c2cccc(N3CCC3)c2)cs1 (stereo in doubt)")
"< 0.1 µM"
>>> readoutvalue("C[C@@H]1CN(c2cccc(-c3csc(NC(=O)CNC(=O)c4ccc5c(c4)CCCCO5)n3)n2)C[C@H](C)O1")
"0.1 to 1 µM"

---

Target: BRM (Homo sapiens)
Test: ATPase catalytic activity assay of BRM (ADP-Glo)
Type: biochemical
Settings: read-out: BRM IC50 (μM)*
Listed here: items and their measured IC50.
measurementName: IC50

>>> readoutvalue("C[C@@H]1CN(c2cccc(-c3csc(NC(=O)CNC(=O)c4ccc5c(c4)C(F)(C(F)F)CCO5)n3)n2)C[C@H](C)O1 (stereo in doubt) [Compound 272]")
"< 0.1 µM"
>>> readoutvalue("C[C@@H]1CN(c2cccc(-c3csc(NC(=O)CNC(=O)c4ccc5c(c4)[C@@](C)(F)COC5)n3)n2)C[C@H](C)O1 [Compound 412]")
"0.1 to 1 µM"
>>> readoutvalue("Cn1ccc2ccc(-c3csc(NC(=O)CNC(=O)c4ccc5c(c4)[C@](C)(F)COC5)n3)cc2c1=O [Compound 389]")
"< 0.1 µM"
>>> readoutvalue("Cc1nccc(-c2cccc(-c3csc(NC(=O)CNC(=O)c4cccc(C(C)(C)CO)c4)n3)n2)n1 [Compound 222]")
"< 0.1 µM"
>>> readoutvalue("COc1cccc(-c2csc(NC(=O)CNC(=O)c3cc(F)c4c(c3)[C@](C)(C#N)COC4)n2)c1 [Compound 270]")
"< 0.1 µM"
>>> readoutvalue("C[C@@H]1CN(c2cccc(-c3csc(NC(=O)CNC(=O)c4ccc5c(c4)[C@]4(CCO4)COC5)n3)n2)C[C@H](C)O1 [Compound 349]")
"< 0.1 µM"
>>> readoutvalue("CN1CCOc2ccc(-c3csc(NC(=O)CNC(=O)c4ccc5c(c4)[C@](C)(CO)CC5)n3)cc21 [Compound 173]")
"0.1 to 1 µM"

---

Biological target: BRM (Homo sapiens, UniProt P51531)
Test: ATPase catalytic activity assay of BRM (ADP-Glo)
Format: biochemical
measurementName: BRM Max % Inhibition

>>> readoutvalue("CC(C)(CN)c1cccc(C(=O)NCC(=O)Nc2nc(-c3cccc(-c4cccc(Cl)c4)c3)cs2)c1")
">80%"
>>> readoutvalue("C[C@@H]1CN(c2cccc(-c3csc(NC(=O)CNC(=O)c4ccc5c(c4)[C@@](C)(CO)CC5)n3)c2)C[C@H](C)O1")
">95%"
>>> readoutvalue("Cc1cc(-c2cccc(-c3csc(NC(=O)CNC(=O)c4cccc(S(=O)(=O)C(C)C)c4)n3)n2)ncn1")
">95%"
>>> readoutvalue("C[C@@H]1CN(c2cccc(-c3csc(NC(=O)CNC(=O)c4cccc5c4OCC[C@@]5(C)CO)n3)c2)C[C@H](C)O1")
">90%"
>>> readoutvalue("C[C@@]1(CO)CCc2ccc(C(=O)NCC(=O)Nc3nc(-c4cccc(-c5cnccn5)n4)cs3)cc21")
">95%"
>>> readoutvalue("C[C@@H]1CN(c2cccc(-c3csc(NC(=O)CNC(=O)c4ccc5c(c4)C4(COC5)COC4)n3)n2)C[C@H](C)O1")
">95%"
>>> readoutvalue("C[C@@H]1CN(c2cccc(-c3csc(NC(=O)CNC(=O)c4cnc5c(c4)[C@](C)(C#N)CC5)n3)c2)C[C@H](C)O1")
">95%"
>>> readoutvalue("COc1cccc(-c2csc(NC(=O)CNC(=O)c3cc(OC)c4c(c3)[C@](C)(C#N)COC4)n2)c1")
">90%"
>>> readoutvalue("C[C@@H]1CN(c2cccc(-c3csc(NC(=O)CNC(=O)c4cccc(C5(CF)COC5)c4)n3)c2)C[C@H](C)O1")
">95%"
>>> readoutvalue("COc1cccc(-c2csc(NC(=O)CNC(=O)c3ccc4c(c3)C(C)(C#N)CCN4C)n2)c1 (centres unmarked)")
">80%"
>>> readoutvalue("Cc1cc(-c2cccc(-c3csc(NC(=O)CNC(=O)c4ccc5c(c4)[C@](C)(CO)CC5)n3)c2)nc(C)n1")
">95%"
>>> readoutvalue("Cc1cc(C(=O)NCC(=O)Nc2nc(-c3cccc(-c4ccncc4)c3)cs2)cc(C(C)(C)CN)c1")
">80%"
>>> readoutvalue("CC(C(F)(F)F)S(=O)(=O)c1cccc(C(=O)NCC(=O)Nc2nc(-c3cccc(-c4ccncc4)c3)cs2)c1 (centres unmarked) [Compound 112]")
">80%"
>>> readoutvalue("COc1cccc(-c2csc(NC(=O)CNC(=O)c3cc(F)c4c(c3)[C@](C)(C#N)COC4)n2)c1")
">95%"
>>> readoutvalue("CC(C)(CN)c1cccc(C(=O)NCC(=O)Nc2nc(-c3cccc(-c4cc(C#N)cc(CO)c4)c3)cs2)c1")
">80%"
>>> readoutvalue("CC(C)S(=O)(=O)c1cccc(C(=O)NCC(=O)Nc2nc(-c3cccc(-c4ccnc(N)c4)c3)cs2)c1")
">95%"
>>> readoutvalue("C[C@]1(CO)CCc2ccc(C(=O)NCC(=O)Nc3nc(-c4cccc(-c5cccnc5O)n4)cs3)cc21")
">90%"
>>> readoutvalue("Cc1cc(-c2cccc(-c3csc(NC(=O)CNC(=O)c4ccc5c(c4)[C@@](C)(CN)CCC5)n3)c2)cc(C)n1")
">50%"
>>> readoutvalue("Cn1ccc(-c2cccc(-c3csc(NC(=O)CNC(=O)c4cccc(C(C)(C)CN)c4)n3)c2)n1")
">70%"
>>> readoutvalue("Cc1ccc(C(=O)NCC(=O)Nc2nc(-c3cccc(N4C[C@@H](C)O[C@@H](C)C4)c3)cs2)cc1C(C)(C)CO")
">95%"
